target_of_assay: Phosphatidylinositol 4,5-bisphosphate 3-kinase catalytic subunit gamma isoform (Homo sapiens)
Sequence (P48736 whole entry, canonical isoform): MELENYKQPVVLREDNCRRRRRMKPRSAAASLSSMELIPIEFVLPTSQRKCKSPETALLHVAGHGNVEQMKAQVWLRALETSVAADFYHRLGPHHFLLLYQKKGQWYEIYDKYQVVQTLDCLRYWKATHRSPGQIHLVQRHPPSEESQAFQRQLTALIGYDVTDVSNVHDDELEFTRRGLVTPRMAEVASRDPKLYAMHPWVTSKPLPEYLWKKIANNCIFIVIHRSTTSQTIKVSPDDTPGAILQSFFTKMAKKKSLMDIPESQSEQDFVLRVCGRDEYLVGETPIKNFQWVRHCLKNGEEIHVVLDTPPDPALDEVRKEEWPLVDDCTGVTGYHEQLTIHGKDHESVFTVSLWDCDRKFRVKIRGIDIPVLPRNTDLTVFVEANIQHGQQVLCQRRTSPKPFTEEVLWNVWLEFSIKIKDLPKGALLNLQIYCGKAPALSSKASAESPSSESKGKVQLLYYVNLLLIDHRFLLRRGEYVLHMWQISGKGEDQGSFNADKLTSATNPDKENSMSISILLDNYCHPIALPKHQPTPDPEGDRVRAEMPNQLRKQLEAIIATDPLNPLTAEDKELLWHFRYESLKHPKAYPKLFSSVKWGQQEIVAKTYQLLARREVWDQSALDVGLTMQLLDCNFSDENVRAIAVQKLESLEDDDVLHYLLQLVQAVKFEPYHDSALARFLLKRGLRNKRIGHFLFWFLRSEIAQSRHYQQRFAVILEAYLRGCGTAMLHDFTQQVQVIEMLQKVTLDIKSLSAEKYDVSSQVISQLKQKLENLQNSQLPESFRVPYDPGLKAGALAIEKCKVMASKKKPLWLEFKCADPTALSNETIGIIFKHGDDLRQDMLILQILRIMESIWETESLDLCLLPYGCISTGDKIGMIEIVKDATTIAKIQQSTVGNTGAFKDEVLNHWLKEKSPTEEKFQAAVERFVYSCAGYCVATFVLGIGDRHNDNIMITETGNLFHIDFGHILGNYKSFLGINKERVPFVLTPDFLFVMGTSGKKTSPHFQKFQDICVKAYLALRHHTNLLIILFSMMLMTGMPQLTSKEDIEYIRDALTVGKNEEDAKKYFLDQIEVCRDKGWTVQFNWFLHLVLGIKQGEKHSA
measured_parameter: IC50 (nM)

[
  {
    "chemical_structure": "Oc1cccc(-c2cc(OCc3ccccn3)nc(N3CCOCC3)n2)c1",
    "measured_parameter": "IC50",
    "value_measured": 730
  }
]

(P) Oc1cccc(-c2cc(NCCc3ccccn3)nc(N3CCOCC3)n2)c1
(Q) Oc1cccc(-c2nc(-c3cccnc3)cc(N3CCOCC3)n2)c1
Problem: Please choose the item with the lower IC50 value from this pair: P and Q Identify your selection by its label.
Solution: Q
(Q: 340 nM, P: 830 nM)

###

Tested on: IGROV-1
measured_parameter: GI50 (µM)
Write down the numeric answer in µM and omit the unit.

Worked cases, answers included:
[
  {
    "chemical_structure": "c1cncc(CCNc2nc(-c3ccc4cc[nH]c4c3)cc(N3CCOCC3)n2)c1",
    "unit_of_measure": "µM",
    "GI50": 4.2
  },
  {
    "chemical_structure": "CS(=O)(=O)Nc1ccc(-c2cc(N3CCOCC3)nc(OCc3ccccn3)n2)cc1",
    "unit_of_measure": "µM",
    "GI50": 13.5
  },
  {
    "chemical_structure": "CS(=O)(=O)Nc1cccc(-c2cc(N3CCOCC3)nc(NCCc3ccccn3)n2)c1",
    "unit_of_measure": "µM",
    "GI50": 11.5
  },
  {
    "chemical_structure": "Oc1cccc(-c2nc(-c3ccccn3)cc(N3CCOCC3)n2)c1",
    "unit_of_measure": "µM",
    "GI50": 0.37
  },
  {
    "chemical_structure": "Oc1cccc(-c2cc(NCCc3ccncc3)nc(N3CCOCC3)n2)c1",
    "unit_of_measure": "µM",
    "GI50": 0.7
  },
  {
    "chemical_structure": "Oc1cccc(-c2cc(N3CCOCC3)nc(NCCc3ccccn3)n2)c1",
    "unit_of_measure": "µM",
    "GI50": 1.2
  },
  {
    "chemical_structure": "c1cc(CCNc2cc(-c3ccc4cc[nH]c4c3)nc(N3CCOCC3)n2)ccn1",
    "unit_of_measure": "µM",
    "GI50": 14.5
  },
  {
    "chemical_structure": "c1cncc(CCNc2cc(-c3ccc4cc[nH]c4c3)nc(N3CCOCC3)n2)c1",
    "unit_of_measure": "µM",
    "GI50": 6
  }
]

Quick note, GI50 for "c1cc(CCNc2nc(-c3ccc4cc[nH]c4c3)cc(N3CCOCC3)n2)ccn1" landed at 3

Quick note, GI50 for "CS(=O)(=O)Nc1cccc(-c2cc(N3CCOCC3)nc(NCCc3cccnc3)n2)c1" landed at 16.2

Quick note, GI50 for "c1ccc(COc2cc(-c3ccc4cc[nH]c4c3)nc(N3CCOCC3)n2)nc1" landed at 6

Quick note, GI50 for "c1ccc(CCNc2cc(-c3cccc4[nH]ncc34)nc(N3CCOCC3)n2)nc1" landed at 7.8

Quick note, GI50 for "Oc1cccc(-c2cc(N3CCOCC3)nc(NCCc3cccnc3)n2)c1" landed at 0.75

###

target_of_assay: Phosphatidylinositol 4,5-bisphosphate 3-kinase catalytic subunit beta isoform (Homo sapiens, UniProt P42338)
Sequence (P42338 whole entry, canonical isoform): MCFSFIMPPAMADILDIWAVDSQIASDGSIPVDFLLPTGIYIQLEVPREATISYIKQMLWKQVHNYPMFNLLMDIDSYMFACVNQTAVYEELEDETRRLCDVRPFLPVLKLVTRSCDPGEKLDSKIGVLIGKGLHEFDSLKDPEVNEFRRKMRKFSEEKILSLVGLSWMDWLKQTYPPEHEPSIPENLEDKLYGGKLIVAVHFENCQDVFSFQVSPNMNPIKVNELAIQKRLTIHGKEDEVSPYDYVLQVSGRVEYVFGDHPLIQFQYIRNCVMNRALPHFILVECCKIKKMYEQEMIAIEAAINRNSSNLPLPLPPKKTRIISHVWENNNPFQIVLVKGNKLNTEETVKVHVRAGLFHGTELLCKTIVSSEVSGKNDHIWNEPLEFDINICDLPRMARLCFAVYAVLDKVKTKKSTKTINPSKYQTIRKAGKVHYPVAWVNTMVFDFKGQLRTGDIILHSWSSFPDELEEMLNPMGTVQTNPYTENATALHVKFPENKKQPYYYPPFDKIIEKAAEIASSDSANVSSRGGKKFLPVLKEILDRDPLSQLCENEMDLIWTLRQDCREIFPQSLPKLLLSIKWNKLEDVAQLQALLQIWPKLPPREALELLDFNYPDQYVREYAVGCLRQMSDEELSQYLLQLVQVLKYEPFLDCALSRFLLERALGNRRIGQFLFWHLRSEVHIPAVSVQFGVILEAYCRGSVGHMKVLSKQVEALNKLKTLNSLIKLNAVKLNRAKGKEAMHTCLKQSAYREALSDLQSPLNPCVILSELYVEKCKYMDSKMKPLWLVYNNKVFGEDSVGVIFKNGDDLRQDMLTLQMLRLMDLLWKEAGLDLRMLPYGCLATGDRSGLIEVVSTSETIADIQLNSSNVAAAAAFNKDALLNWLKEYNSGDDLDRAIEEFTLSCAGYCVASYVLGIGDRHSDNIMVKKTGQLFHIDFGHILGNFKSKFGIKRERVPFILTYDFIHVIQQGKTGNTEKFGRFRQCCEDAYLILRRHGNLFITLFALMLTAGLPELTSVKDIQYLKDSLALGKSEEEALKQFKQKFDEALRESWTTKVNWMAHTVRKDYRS
assay_notes: Inhibition of human recombinant PI3K p110beta after 1 hr by radiometric scintillation proximity assay
pIC50: −log10 of the molar value.
measured_parameter: pIC50

Worked cases, answers included:
[
  {
    "chemical_structure": "Oc1cccc(-c2cc(N3CCOCC3)nc(NCCc3ccccn3)n2)c1",
    "pIC50": 5.28
  },
  {
    "chemical_structure": "Oc1cccc(-c2cc(OCc3ccccn3)nc(N3CCOCC3)n2)c1",
    "pIC50": 6.43
  },
  {
    "chemical_structure": "Oc1cccc(-c2cc(NCCc3ccccn3)nc(N3CCOCC3)n2)c1",
    "pIC50": 5.59
  },
  {
    "chemical_structure": "Oc1cccc(-c2cc(NCc3ccccn3)nc(N3CCOCC3)n2)c1",
    "pIC50": 5.64
  },
  {
    "chemical_structure": "Oc1cccc(-c2cc(NCCc3cccnc3)nc(N3CCOCC3)n2)c1",
    "pIC50": 5.72
  }
]

(I) Oc1cccc(-c2cc(NCCc3ccncc3)nc(N3CCOCC3)n2)c1
(II) Oc1cccc(-c2nc(-c3ccncc3)cc(N3CCOCC3)n2)c1
(III) Oc1cccc(-c2nc(-c3cccnc3)cc(N3CCOCC3)n2)c1
(IV) Oc1cccc(-c2nc(-c3ccccn3)cc(N3CCOCC3)n2)c1
Problem: Sort by pIC50, descending. Hello, could you send the labels back in the order asked? Thank you.
Solution: IV, II, III, I
(IV: 7.00, II: 6.70, III: 6.36, I: 5.80)

###

assay_notes: Metabolic stability in mouse liver microsomes assessed as compound metabolized at […] after 30 mins by MS analysis
Assay type: ADME, Microsome
condition: read-out: Activity
measured_parameter: metabolised at 0.5 h (%)

[
  {
    "chemical_structure": "c1ccc(COc2cc(-c3cccc4[nH]ncc34)nc(N3CCOCC3)n2)nc1",
    "metabolised at 0.5 h, %": 66
  },
  {
    "chemical_structure": "Oc1cccc(-c2nc(-c3ccccn3)cc(N3CCOCC3)n2)c1",
    "metabolised at 0.5 h, %": 57
  },
  {
    "chemical_structure": "Oc1cccc(-c2cc(NCCc3ccncc3)nc(N3CCOCC3)n2)c1",
    "metabolised at 0.5 h, %": 71
  },
  {
    "chemical_structure": "c1cc(-c2cc(NCCc3ccncc3)nc(N3CCOCC3)n2)c2cn[nH]c2c1",
    "metabolised at 0.5 h, %": 68
  },
  {
    "chemical_structure": "c1cncc(CCNc2cc(-c3cccc4[nH]ncc34)nc(N3CCOCC3)n2)c1",
    "metabolised at 0.5 h, %": 98
  },
  {
    "chemical_structure": "CS(=O)(=O)Nc1cccc(-c2cc(N3CCOCC3)nc(NCCc3ccncc3)n2)c1",
    "metabolised at 0.5 h, %": 53
  },
  {
    "chemical_structure": "c1cc(CCNc2nc(-c3ccc4cc[nH]c4c3)cc(N3CCOCC3)n2)ccn1",
    "metabolised at 0.5 h, %": 60
  },
  {
    "chemical_structure": "c1ccc(CCNc2cc(-c3cccc4[nH]ncc34)nc(N3CCOCC3)n2)nc1",
    "metabolised at 0.5 h, %": 84
  },
  {
    "chemical_structure": "c1cc(-c2cc(N3CCOCC3)nc(NCCc3ccncc3)n2)c2cn[nH]c2c1",
    "metabolised at 0.5 h, %": 74
  }
]

###

target_of_assay: Phosphatidylinositol 4,5-bisphosphate 3-kinase catalytic subunit alpha isoform (Homo sapiens, UniProt P42336)
Sequence (P42336 whole entry, canonical isoform): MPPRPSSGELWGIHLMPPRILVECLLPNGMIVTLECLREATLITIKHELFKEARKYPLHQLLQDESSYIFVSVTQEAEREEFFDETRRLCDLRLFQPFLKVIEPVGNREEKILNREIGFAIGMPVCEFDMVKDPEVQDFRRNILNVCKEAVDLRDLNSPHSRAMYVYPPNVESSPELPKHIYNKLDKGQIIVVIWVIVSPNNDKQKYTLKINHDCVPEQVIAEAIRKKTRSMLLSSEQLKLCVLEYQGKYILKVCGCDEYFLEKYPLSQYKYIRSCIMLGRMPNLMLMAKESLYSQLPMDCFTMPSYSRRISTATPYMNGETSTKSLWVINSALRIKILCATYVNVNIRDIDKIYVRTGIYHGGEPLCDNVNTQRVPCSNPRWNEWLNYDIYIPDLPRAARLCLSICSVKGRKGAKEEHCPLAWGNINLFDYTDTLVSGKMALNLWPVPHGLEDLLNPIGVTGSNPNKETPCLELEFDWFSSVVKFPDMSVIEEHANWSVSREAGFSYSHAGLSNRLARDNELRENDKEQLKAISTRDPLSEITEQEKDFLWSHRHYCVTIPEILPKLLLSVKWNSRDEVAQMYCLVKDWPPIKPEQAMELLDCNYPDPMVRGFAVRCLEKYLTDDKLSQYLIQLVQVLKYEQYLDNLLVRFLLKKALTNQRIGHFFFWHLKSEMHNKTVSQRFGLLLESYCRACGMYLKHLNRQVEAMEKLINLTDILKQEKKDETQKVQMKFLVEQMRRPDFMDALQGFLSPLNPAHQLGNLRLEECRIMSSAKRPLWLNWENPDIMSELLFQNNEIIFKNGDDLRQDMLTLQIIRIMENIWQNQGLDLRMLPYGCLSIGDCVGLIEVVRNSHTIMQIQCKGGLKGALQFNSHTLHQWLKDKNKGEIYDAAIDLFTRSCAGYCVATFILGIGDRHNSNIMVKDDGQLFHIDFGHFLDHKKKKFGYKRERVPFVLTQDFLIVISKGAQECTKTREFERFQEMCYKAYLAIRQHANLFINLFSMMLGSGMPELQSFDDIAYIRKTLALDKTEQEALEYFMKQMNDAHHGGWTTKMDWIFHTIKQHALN
measured_parameter: IC50 (nM)

Worked cases, answers included:
[
  {
    "chemical_structure": "Oc1cccc(-c2nc(-c3cccnc3)cc(N3CCOCC3)n2)c1",
    "unit_of_measure": "nM",
    "IC50": 260
  },
  {
    "chemical_structure": "Oc1cccc(-c2cc(N3CCOCC3)nc(NCCc3ccccn3)n2)c1",
    "unit_of_measure": "nM",
    "IC50": 180
  },
  {
    "chemical_structure": "Oc1cccc(-c2nc(-c3ccc(Cl)c(Cl)c3)cc(N3CCOCC3)n2)c1",
    "unit_of_measure": "nM",
    "IC50": 200
  },
  {
    "chemical_structure": "c1ccc(CCNc2cc(-c3cccc4[nH]ncc34)nc(N3CCOCC3)n2)nc1",
    "unit_of_measure": "nM",
    "IC50": 1300
  }
]

(A) Oc1cccc(-c2cc(NCCc3cccnc3)nc(N3CCOCC3)n2)c1
(B) c1ccc(COc2nc(-c3cccc4[nH]ncc34)cc(N3CCOCC3)n2)nc1
(C) Oc1cccc(-c2nc(-c3ccccn3)cc(N3CCOCC3)n2)c1
(D) CS(=O)(=O)Nc1ccc(-c2cc(N3CCOCC3)nc(OCc3ccccn3)n2)cc1
Problem: Sort by IC50, descending. Hello, could you send the labels back in the order asked? Thank you.
Solution: D, B, A, C

(1) Oc1cccc(-c2cc(NCCc3ccccn3)nc(N3CCOCC3)n2)c1
(2) c1ccc(CCNc2nc(-c3cccc4[nH]ncc34)cc(N3CCOCC3)n2)nc1
Problem: Please choose the item with the lower IC50 value from this pair: 1 and 2 Identify your selection by its label.
Solution: 1
(1: 250 nM, 2: 1100 nM)

###

assay_notes: Metabolic stability in mouse liver microsomes assessed as compound metabolized at […] after 15 mins by MS analysis
Assay type: ADME, Microsome
condition: read-out: Activity
measured_parameter: metabolised at 0.25 h (%)

Worked cases, answers included:
[
  {
    "chemical_structure": "c1cc(CCNc2nc(-c3ccc4cc[nH]c4c3)cc(N3CCOCC3)n2)ccn1",
    "unit_of_measure": "%",
    "value_measured": 38
  },
  {
    "chemical_structure": "c1cncc(CCNc2cc(-c3cccc4[nH]ncc34)nc(N3CCOCC3)n2)c1",
    "unit_of_measure": "%",
    "value_measured": 66
  },
  {
    "chemical_structure": "c1cc(-c2cc(N3CCOCC3)nc(NCCc3ccncc3)n2)c2cn[nH]c2c1",
    "unit_of_measure": "%",
    "value_measured": 49
  },
  {
    "chemical_structure": "CS(=O)(=O)Nc1cccc(-c2cc(N3CCOCC3)nc(NCCc3ccncc3)n2)c1",
    "unit_of_measure": "%",
    "value_measured": 33
  },
  {
    "chemical_structure": "c1cc(-c2cc(NCCc3ccncc3)nc(N3CCOCC3)n2)c2cn[nH]c2c1",
    "unit_of_measure": "%",
    "value_measured": 37
  }
]

(A) c1ccc(CCNc2cc(-c3cccc4[nH]ncc34)nc(N3CCOCC3)n2)nc1
(B) Oc1cccc(-c2nc(-c3ccccn3)cc(N3CCOCC3)n2)c1
Problem: Which shows the larger metabolised at 0.25 h value: A or B ? Identify your selection by its label.
Solution: A
(A: 58%, B: 39%)
